This listing pairs compounds with measured melting point.

Check out these entries, answers already filled in.
Cc1ccc(C(=O)NC(C)(C)C)c(Nc2ccc3cn[nH]c3c2)n1	107 to 109 °C
C[C@@H]1C[C@](C)(O)[C@H](C)N1c1ccc(C#N)c(F)c1	125 to 128 °C
CC(C)(C)[N+]([O-])=Cc1ccc(OCc2ccccc2)cc1	11 °C
CC(C)(C)c1cc(CNC(=O)Nc2cccc(C(F)(F)F)c2)nn1-c1ccc(S(C)(=O)=O)cc1	162 to 165 °C
Cc1cccc(-c2nc(CI)c(C)o2)c1	32 °C
FC(F)(F)c1ccc(OC2CCCCO2)c(Sc2ccccc2)c1 (stereo not drawn)	72 to 73 °C
CCOC(=O)c1[nH]c(C)c(C)c1CC	95 to 97 °C
CCc1cccc(NC(=O)C=C(C)C)c1	90 °C

Exercise: Check the records and state melting point for O=c1oc(-c2ccc(OCc3ccc(Cl)c(Cl)c3)cc2)cc(O)c1SCCc1ccccc1
Key: 168 to 169 °C

Exercise: Provide measured melting point value, entry: CC(=Cc1ccc2[nH]ccc2c1)C(=O)O
Key: 207 to 209 °C

Exercise: Look up melting point of CC(C)(C)OC(=O)N1CCC(S(=O)(=O)Cl)CC1 and report it.
Key: 84.6 to 85.7 °C

Exercise: Answer with the recorded melting point for the compound listed here: O=C(O)CNC1CCc2ccc(O)cc21 (stereo not drawn)
Key: 260 °C

Exercise: Check the records and state melting point for Cc1ccc(S(=O)(=O)NC[C@@H]2C[C@@H](S)CN2S(=O)(=O)c2ccc3ccccc3c2)cc1
Key: 175 °C

Exercise: Name the recorded melting point of the item O=C(Cc1ccc(O)c2[nH]ncc12)NCc1ccccc1 in your answer.
Key: 188 to 190 °C

Exercise: Note down melting point recorded for O=C(O)CCCCCSC1=CCCC1=O
Key: 77.5 to 78 °C
